Target Desc: Rat M4 (Rattus norvegicus)
Construct: expressed in transfected cells; host or cells: CHO-K1 (ATCC), stably expressing M4 and Gqi5
Assay Protocol: mAChR M4 cell-based functional calcium flux assay (rat M4/Gqi5/CHO cells)
Condition: % ACh maximum at 30 μM
Parameter: Emin (rat M4) (%)

INSERT INTO assay_data (molecule, target_desc, value_reported) VALUES
  ('CC(C)(C)CCN1CCC2(CC1)CC2CNc1ncc(-c2ccccc2)s1 (stereo not drawn)', 'Rat M4 (Rattus norvegicus)', 4.86),
  ('CC(C)(C)CCN1CCC2(CC1)CC2CNc1ccc(-c2ccc3ccncc3c2)nn1 (stereo not drawn)', 'Rat M4 (Rattus norvegicus)', 3.41),
  ('Fc1ccc(Cl)c(-c2ccc(NCC3CC34CCN(CC3CCCOC3)CC4)nn2)c1 (stereo not drawn)', 'Rat M4 (Rattus norvegicus)', 4.24),
  ('CC(=O)Nc1ccc(-c2ccc(NC[C@@H]3CC34CCN(CCC(C)(C)C)CC4)nn2)cc1', 'Rat M4 (Rattus norvegicus)', 4),
  ('CC(=O)Nc1ccc(-c2nnc(NCC3CC34CCN(CCC(C)(C)C)CC4)c(C)c2C)cc1 (stereo not drawn)', 'Rat M4 (Rattus norvegicus)', 4),
  ('CC(C)(C)CCN1CCC2(CC1)CC2CNc1ccc(-c2cc(F)ccc2Cl)cn1 (stereo not drawn)', 'Rat M4 (Rattus norvegicus)', 4.18);

* * *

Target Desc: Rat M4 (Rattus norvegicus, UniProt P08485)
Construct: expressed in transfected cells; host or cells: CHO-K1 (ATCC), stably expressing M4 and Gqi5
Sequence (P08485 whole entry): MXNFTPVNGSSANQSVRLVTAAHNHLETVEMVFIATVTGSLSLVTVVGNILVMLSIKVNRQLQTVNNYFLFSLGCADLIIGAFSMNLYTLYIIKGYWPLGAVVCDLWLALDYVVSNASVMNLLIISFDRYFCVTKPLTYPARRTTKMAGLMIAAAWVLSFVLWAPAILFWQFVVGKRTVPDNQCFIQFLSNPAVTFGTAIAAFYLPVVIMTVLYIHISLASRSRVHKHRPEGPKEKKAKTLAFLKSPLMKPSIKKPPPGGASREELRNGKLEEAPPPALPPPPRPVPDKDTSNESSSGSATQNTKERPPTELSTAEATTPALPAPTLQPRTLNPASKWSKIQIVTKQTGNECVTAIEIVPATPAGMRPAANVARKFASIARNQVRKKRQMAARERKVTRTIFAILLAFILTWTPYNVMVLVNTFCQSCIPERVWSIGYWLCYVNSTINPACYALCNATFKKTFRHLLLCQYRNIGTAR
Assay Protocol: mAChR M4 cell-based functional calcium flux assay (rat M4/Gqi5/CHO cells)
Condition: % ACh maximum at 30 μM
Parameter: Emin (rat M4) (%)

INSERT INTO assay_data (molecule, target_desc, value_reported) VALUES
  ('CC(=O)Nc1ccc(-c2ccc(NCC3CC34CCN(CCC(C)(C)C)CC4)nn2)cc1 (stereo not drawn)', 'Rat M4 (Rattus norvegicus, UniProt P08485)', 3.40);

A: CC(C)(C)CCN1CCC2(CC1)CC2CNc1ccc(-c2ccc(F)cc2)nn1 (stereo not drawn)
B: CCN1CCC2(CC1)CC2CNc1ccc(-c2cn(C)nc2C)nn1 (stereo not drawn)
Challenge: When A and B are compared, which has the higher number for Emin (rat M4)? Give the label under which the chosen entry appears.
Response given: B

* * *

Target Desc: Human M4 (Homo sapiens)
Sequence (P08173 1-479): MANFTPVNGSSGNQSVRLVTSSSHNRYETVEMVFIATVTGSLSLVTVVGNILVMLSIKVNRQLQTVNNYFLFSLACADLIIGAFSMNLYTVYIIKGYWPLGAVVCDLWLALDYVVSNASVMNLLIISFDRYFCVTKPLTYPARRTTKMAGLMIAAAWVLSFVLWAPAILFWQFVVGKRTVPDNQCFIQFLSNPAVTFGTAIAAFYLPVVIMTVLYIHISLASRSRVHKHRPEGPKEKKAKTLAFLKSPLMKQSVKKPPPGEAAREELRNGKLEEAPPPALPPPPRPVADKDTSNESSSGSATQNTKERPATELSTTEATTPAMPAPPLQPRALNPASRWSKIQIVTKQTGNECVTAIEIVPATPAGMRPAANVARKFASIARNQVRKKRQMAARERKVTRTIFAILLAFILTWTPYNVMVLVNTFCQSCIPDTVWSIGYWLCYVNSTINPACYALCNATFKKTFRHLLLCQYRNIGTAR
Assay Protocol: mAChR M4 cell-based functional calcium flux assay (human M4/Gqi5/CHO cells)
Condition: decrease of the response to an EC80 concentration of acetylcholine
pIC50: −log10 of the molar value.
Parameter: pIC50

Answered examples (3):
INSERT INTO assay_data (compound, parameter, value_reported) VALUES
  ('Fc1ccc(Cl)c(-c2ccc(NCC3CC34CCN(Cc3ncccc3C(F)(F)F)CC4)nn2)c1 (centres unmarked)', 'pIC50', 7.13),
  ('Fc1ccc(Cl)c(-c2ccc(NC[C@@H]3CC34CCN(Cc3ccccn3)CC4)nn2)c1', 'pIC50', 7.05),
  ('CC(C)(C)CCN1CCC2(CC1)CC2CNc1ccc(-c2ccc(F)c(F)c2)nn1 (centres unmarked)', 'pIC50', 7.13);

A: CC(=O)Nc1ccc(-c2ccc(NC[C@@H]3CC34CCN(CCC(C)(C)C)CC4)nn2)cc1
B: Fc1ccc(Cl)c(-c2ccc(NC[C@@H]3CC34CCN(Cc3ccccc3)CC4)nn2)c1
Challenge: Problem: Given the entries A and B , determine which has the lower reported pIC50. Give the label under which the chosen entry appears.
Response given: B
(B: 6.90, A: 8.69)

1: Fc1ccc(Cl)c(-c2ccc(NCC3CC34CCN(CC3CCCOC3)CC4)nn2)c1 (centres unmarked)
2: Cc1nn(C)cc1-c1ccc(NCC2CC23CCN(C[C@H]2C[C@@H]4CC[C@H]2O4)CC3)nn1 (some centres unmarked)
Challenge: When 1 and 2 are compared, which has the higher number for pIC50? Give the label under which the chosen entry appears.
Response given: 1

a: Cc1cnn(C)c1-c1ccc(NC(=O)C2CC23CCN(CCC(C)(C)C)CC3)nn1 (centres unmarked)
b: CC(C)(C)CCN1CCC2(CC1)CC2CNc1ccc(-c2ccc3ccccc3c2)nn1 (centres unmarked)
Challenge: When a and b are compared, which has the higher number for pIC50? Give the label under which the chosen entry appears.
Response given: b

A: Cc1nn(C)cc1-c1ccc(NCC2CC23CCN(CC2CCOCC2)CC3)nn1 (centres unmarked)
B: CC(C)(C)CCN1CCC2(CC1)CC2CNc1ccc(-c2ccc(F)cc2)nn1 (centres unmarked)
Challenge: Problem: Given the entries A and B , determine which has the lower reported pIC50. Give the label under which the chosen entry appears.
Response given: B

* * *

Target Desc: Human M4 (Homo sapiens)
Construct: expressed in transfected cells; host or cells: CHO-K1 (ATCC), stably expressing M4 and Gqi5
Assay Protocol: mAChR M4 cell-based functional calcium flux assay (human M4/Gqi5/CHO cells)
Condition: % ACh maximum at 30 μM
Parameter: Emin (human M4) (%)

INSERT INTO results (compound, target_desc, unit_text, value_reported) VALUES
  ('Cc1nn(C)cc1-c1ccc(NCC2CC23CCN(C[C@H]2C[C@@H]4CC[C@H]2O4)CC3)nn1 (some centres unmarked) [Compound 3]', 'Human M4 (Homo sapiens)', '%', 3.52),
  ('CC(C)(C)CCN1CCC2(CC1)CC2CNc1ccc(-c2cccc(F)c2)nn1 (centres unmarked) [Compound 27]', 'Human M4 (Homo sapiens)', '%', 3.18),
  ('CC(C)(C)CCN1CCC2(CC1)CC2CNc1ccc(-c2ccc3ccncc3c2)nn1 (centres unmarked) [Compound 44]', 'Human M4 (Homo sapiens)', '%', 2.73),
  ('Cc1cnn(C)c1-c1ccc(N(C)CC2CC23CCN(CCC(C)(C)C)CC3)nn1 (centres unmarked) [Compound 76]', 'Human M4 (Homo sapiens)', '%', 4),
  ('CC(C)(C)CCN1CCC2(CC1)CC2CNc1ccc(-c2ccc(F)cc2Cl)nn1 (centres unmarked) [Compound 24]', 'Human M4 (Homo sapiens)', '%', 2.81),
  ('O=C(Nc1ccc(-c2cc(F)ccc2Cl)nn1)C1CC12CCN(CC1CC3C=CC1C3)CC2 (centres unmarked) [Compound 18]', 'Human M4 (Homo sapiens)', '%', 3.46),
  ('Cc1nn(C)c(C)c1-c1ccc(NCC2CC23CCN(CCC(C)(C)C)CC3)nn1 (centres unmarked) [Compound 36]', 'Human M4 (Homo sapiens)', '%', 2.61),
  ('CC(C)(C)CCN1CCC2(CC1)CC2CNc1ccc(-c2ccc3c(c2)OCO3)nn1 (centres unmarked) [Compound 46]', 'Human M4 (Homo sapiens)', '%', 3.06);

* * *

Target Desc: Human M4 (Homo sapiens)
Construct: expressed in transfected cells; host or cells: CHO-K1 (ATCC), stably expressing M4 and Gqi5
Sequence (P08173 1-479): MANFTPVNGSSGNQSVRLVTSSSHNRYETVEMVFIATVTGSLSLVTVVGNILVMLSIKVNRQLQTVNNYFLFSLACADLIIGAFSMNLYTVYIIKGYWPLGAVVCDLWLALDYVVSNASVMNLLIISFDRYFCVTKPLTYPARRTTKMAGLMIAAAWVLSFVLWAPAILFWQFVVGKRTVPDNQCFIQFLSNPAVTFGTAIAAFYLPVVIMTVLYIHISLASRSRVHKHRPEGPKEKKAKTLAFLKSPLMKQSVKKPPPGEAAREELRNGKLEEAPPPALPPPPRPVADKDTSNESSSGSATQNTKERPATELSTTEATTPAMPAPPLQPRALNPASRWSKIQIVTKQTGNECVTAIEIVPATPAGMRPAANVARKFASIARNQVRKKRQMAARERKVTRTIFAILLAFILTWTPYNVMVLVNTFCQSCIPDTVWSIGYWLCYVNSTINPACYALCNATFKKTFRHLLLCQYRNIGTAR
Assay Protocol: mAChR M4 cell-based functional calcium flux assay (human M4/Gqi5/CHO cells)
Condition: % ACh maximum at 30 μM
Parameter: Emin (human M4) (%)

INSERT INTO results (molecule, target_desc, parameter, value_reported) VALUES
  ('Cc1nn(C)cc1-c1ccc(NCC2CC23CCN(CCC(C)(C)C)CC3)nc1 (stereo not shown)', 'Human M4 (Homo sapiens)', 'Emin (human M4)', 3.87),
  ('CC(C)(C)CCN1CCC2(CC1)CC2CNc1ccc(-c2ccccc2F)nn1 (stereo not shown)', 'Human M4 (Homo sapiens)', 'Emin (human M4)', 2.98),
  ('Fc1ccc(Cl)c(-c2ccc(NC[C@@H]3CC34CCN(CC3CCOCC3)CC4)nn2)c1', 'Human M4 (Homo sapiens)', 'Emin (human M4)', 4);

1: Fc1ccc(Cl)c(-c2ccc(NC[C@@H]3CC34CCN(CC3CCCCC3)CC4)nn2)c1
2: c1cc(N2CCOCC2)nnc1NCC1CC12CCN(CC1CCCCC1)CC2 (stereo not shown)
Challenge: When 1 and 2 are compared, which has the higher number for Emin (human M4)? Give the label under which the chosen entry appears.
Response given: 2

A: CC(C)(C)CCN1CCC2(CC1)CC2CNc1ccc(-c2cc(F)ccc2C#N)nn1 (stereo not shown)
B: CC(C)(C)CCN1CCC2(CC1)CC2CNc1ncc(-c2ccccc2)s1 (stereo not shown)
Challenge: When A and B are compared, which has the higher number for Emin (human M4)? Give the label under which the chosen entry appears.
Response given: B

I: CC(C)(C)CCN1CCC2(CC1)CC2CNc1ccc(-c2cccc(F)c2Cl)nn1 (stereo not shown)
II: CC(C)(C)CCN1CCC2(CC1)C[C@@H]2CNc1ccc(-c2cc(F)ccc2Cl)nn1
III: Cc1nn(C)cc1-c1nnc(NCC2CC23CCN(CC2CCCCC2)CC3)c2ccccc12 (stereo not shown)
IV: CCCN1CCC2(CC1)CC2CNc1ccc(-c2cn(C)nc2C)nn1 (stereo not shown)
Challenge: List by increasing Emin (human M4). Quick reminder: the answer is the labels in the order asked.
Response given: I, II, III, IV

a: Cc1noc(C)c1-c1ccc(NCC2CC23CCN(CCC(C)(C)C)CC3)nn1 (stereo not shown)
b: Cc1cccnc1CN1CCC2(CC1)C[C@H]2CNc1ccc(-c2cc(F)ccc2Cl)nn1
Challenge: Problem: Given the entries a and b , determine which has the lower reported Emin (human M4). Give the label under which the chosen entry appears.
Response given: b

Where do these numbers come from? They come from patent US12600726B2.
